- Assay System: UniProtKB P30542
- Sequence (P30542 whole entry): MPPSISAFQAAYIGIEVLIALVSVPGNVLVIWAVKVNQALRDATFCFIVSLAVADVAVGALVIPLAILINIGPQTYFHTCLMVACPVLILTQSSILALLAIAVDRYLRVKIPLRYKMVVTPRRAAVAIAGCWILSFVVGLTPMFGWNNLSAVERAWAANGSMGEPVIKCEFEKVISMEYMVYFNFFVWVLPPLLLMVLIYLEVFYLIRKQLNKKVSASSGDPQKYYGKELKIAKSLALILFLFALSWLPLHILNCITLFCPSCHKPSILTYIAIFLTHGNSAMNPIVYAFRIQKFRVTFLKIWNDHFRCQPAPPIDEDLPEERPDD
- Measurement Description: Activity at human recombinant adenosine A1 receptor expressed in CHO cells assessed as inhibition of forskolin-stimulated cAMP accumulation in presence of CPA at 0.01 uM relative to control
- Type: functional, cell-based
- Design: scale not given: the % may be the effect or the level left
Observation Type: Activity (%)
Give a bare numeral; the unit % is implied.

Answered examples (3):
Measured Activity of COc1ccc(C(=O)c2c(N)sc3cnccc23)cc1 : 95

The molecule listed as Nc1sc2cnccc2c1C(=O)c1ccc(Br)cc1 has a reported Activity of 97

So, Nc1sc2cnccc2c1C(=O)c1ccccc1 ? Its Activity was 91

Next molecule, please.
Sample Nc1sc2cnccc2c1C(=O)c1cccc2ccccc12 ; Activity observed: 113

Origin of values: ChEMBL document CHEMBL1139691
